Tested on: T-47D
Test Details: Caspase cascade activation assay (N-(Ac-DEVD)-N'-ethoxycarbonyl-R110 fluorogenic substrate) in T-47D cells
Assay type: cell-based
Protocol Conditions: T-47D human breast cancer cells, 24 h incubation; ratio of net RFU of compound to control
Quantity Measured: T-47D Ratio (caspase activity)
# answer = number (no unit)

Below, 4 compounds whose answers are already recorded.
COc1cc(C2CC(=O)Oc3c2ccc2c3ccn2C)cc(Br)c1OC (centres unmarked)
6.2
COc1cc(C2CC(O)Oc3c2ccc2[nH]ccc32)cc(Br)c1OC (centres unmarked)
2.5
COc1cc(C2C(C#N)=COc3c2ccc2[nH]ccc32)cc(Br)c1OC (centres unmarked)
7.3
COc1ccc(C2CC(=O)Oc3c2cc(OC)c(OC)c3OC)cc1 (centres unmarked)
5.7

We now examine a further compound.
Record Cn1ccc2c3c(ccc21)C(c1cncc(Br)c1)C(C#N)=CO3 (centres unmarked) , field T-47D Ratio (caspase activity): 5.1

====

System: T-47D
Test Details: Caspase cascade activation assay (N-(Ac-DEVD)-N'-ethoxycarbonyl-R110 fluorogenic substrate) in T-47D cells
Assay type: cell-based
Protocol Conditions: T-47D human breast cancer cells, 24 h incubation; ratio of net RFU of compound to control
Method: Human breast cancer cell lines T-47D and ZR-75-1 were grown according to media component mixtures designated by American Type Culture Collection +10% FCS (Invitrogen Corporation), in a 5% CO2−95% humidity incubator at 37° C. […] After the 3 h incubation, the samples were read for fluorescence as above (T=3 h). The Relative Fluorescence Unit values (RFU) were used to calculate the sample readings as follows: RFU(T=3h)−Control RFU(T=0)=Net RFU(T=3h) […]
Each entry below carries its reported T-47D Ratio (caspase activity).
# answer = number (no unit)

CCn1ccc2c3c(ccc21)C(c1cc(Br)c(OC)c(OC)c1)C(C#N)=CO3 (stereo not drawn)
3.6

Record COc1cc(C2CC(O)Oc3c2ccc2cnccc32)cc(Br)c1OC (stereo not drawn) , field T-47D Ratio (caspase activity): 1.1

Record COc1ccc2c(c1)OC(=O)C(C#N)C2c1cc(OC)c(OC)c(OC)c1 (stereo not drawn) , field T-47D Ratio (caspase activity): 4.3

Record COc1cc(C2=C(Cl)COc3cc(N(C)C)ccc32)cc(OC)c1OC , field T-47D Ratio (caspase activity): 8.2

Record COc1cc(C2=CCOc3cc(N(C)C)ccc32)cc(OC)c1OC , field T-47D Ratio (caspase activity): 7.8

Record COc1cc(C2C(C#N)=COc3cc(N(C)C)ccc32)cc(Br)c1OC (stereo not drawn) , field T-47D Ratio (caspase activity): 5.5

====

Tested on: T-47D
Test Details: Caspase cascade activation assay (N-(Ac-DEVD)-N'-ethoxycarbonyl-R110 fluorogenic substrate) in T-47D cells
Format: cell-based
Protocol Conditions: T-47D human breast cancer cells, 24 h incubation; ratio of net RFU of compound to control
Each entry below carries its reported T-47D Ratio (caspase activity).
# answer = number (no unit)

Below, 4 molecules whose answers are already recorded.
COc1cc(C2CC(OC(C)=O)Oc3c2ccc2c3ccn2C)cc(Br)c1OC (stereo not drawn) [Example 20]
4.7
COc1cc(C2CCOc3c2ccc2c3ccn2C)cc(Br)c1OC (stereo not drawn) [Example 22]
6.5
COc1cc(C2C(C#N)=COc3c2ccc2c3ccn2C)cc(Br)c1OC (stereo not drawn) [Example 4]
5.9
COc1cc(C2CC(O)Oc3cc(NC(C)=O)ccc32)cc(Br)c1OC (stereo not drawn) [Example 27]
1.3

Record COc1cc(C2C(C#N)=COc3c2ccc2c3oc(=O)n2C)cc(Br)c1OC (stereo not drawn) [Example 7] , field T-47D Ratio (caspase activity): 6.7

Record COc1ccc2c(c1)OC(=O)CC2c1cc(OC)c(OC)c(OC)c1 (stereo not drawn) [Example 31] , field T-47D Ratio (caspase activity): 1.3

Record COc1ccc(C2CC(=O)Oc3c2cc(OC)c(OC)c3OC)cc1O (stereo not drawn) [Example 32] , field T-47D Ratio (caspase activity): 4.4

Record COc1cc(C2c3ccc4[nH]ccc4c3OC(=O)C2C#N)cc(Br)c1OC (stereo not drawn) [Example 14] , field T-47D Ratio (caspase activity): 4.8
